Catalogue of binders with associated pKd
# Target Or System: T1, GFP-9S library array, motif 4 ND N98Q;D124Q (synthetic construct, N98Q;D124Q)
# T1 chain: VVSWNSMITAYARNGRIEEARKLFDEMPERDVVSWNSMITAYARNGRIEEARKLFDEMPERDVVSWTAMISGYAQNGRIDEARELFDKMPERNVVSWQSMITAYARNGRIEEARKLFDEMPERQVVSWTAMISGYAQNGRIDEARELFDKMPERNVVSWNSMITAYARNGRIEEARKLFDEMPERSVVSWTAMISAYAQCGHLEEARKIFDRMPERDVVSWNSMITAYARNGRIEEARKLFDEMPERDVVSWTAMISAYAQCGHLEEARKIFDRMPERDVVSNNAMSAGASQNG
# Assay Protocol: high-throughput RNA pulldown from lysate on Ni-NTA beads; HRP: 50 mM Tris pH 8, 150 mM NaCl, 1 mM beta-mercaptoethanol, 50 ug/ml BSA, 3 ug/ml yeast RNA, 0.5% heparin; ITC and FP: Tris pH 8, 200 mM KCl, 5% glycerol; MST: 50 mM Tris pH 8, 200 mM NaCl, 1 mM DTT, BSA, heparin, 0.05% Tween 20
# Condition Info: tags: N-terminal His-eGFP; label: 5' IRDye 800CW
pKd: −log10 of the molar value.
Metric Name: pKd

[[record]]
binder = "AUUAUACGUGA (ssRNA) [IR-rpoA-U]"
metric_name = "pKd"
reading = 6.91

[[record]]
binder = "AUUAAACGUGA (ssRNA) [IR-rpoA-A]"
metric_name = "pKd"
reading = 6.78

